Biological target: T1, h-FXIIa (human, UniProt P00748 20-615)
T1 construct: also called factor XIIa
T1 sequence (looked up): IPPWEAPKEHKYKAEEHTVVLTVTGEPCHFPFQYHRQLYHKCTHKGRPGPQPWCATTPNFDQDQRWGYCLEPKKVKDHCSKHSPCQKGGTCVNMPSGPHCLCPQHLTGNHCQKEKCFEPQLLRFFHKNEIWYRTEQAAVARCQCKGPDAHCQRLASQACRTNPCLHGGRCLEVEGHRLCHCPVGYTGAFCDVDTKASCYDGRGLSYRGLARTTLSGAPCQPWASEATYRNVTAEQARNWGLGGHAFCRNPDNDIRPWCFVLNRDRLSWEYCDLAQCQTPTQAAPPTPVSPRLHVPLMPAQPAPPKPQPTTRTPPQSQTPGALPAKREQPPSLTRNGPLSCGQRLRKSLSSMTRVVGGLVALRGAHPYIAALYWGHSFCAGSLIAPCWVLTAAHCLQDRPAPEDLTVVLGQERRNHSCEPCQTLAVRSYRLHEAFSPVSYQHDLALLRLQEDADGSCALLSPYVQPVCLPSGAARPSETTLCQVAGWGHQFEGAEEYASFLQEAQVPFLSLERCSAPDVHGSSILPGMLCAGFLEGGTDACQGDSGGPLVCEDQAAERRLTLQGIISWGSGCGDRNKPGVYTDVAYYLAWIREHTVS
Assay: S2302 hydrolysis by h-FXIIa (5.01 nM); inhibitor at RT during 72 hrs, against -80° C.
Where no end group is shown, it is not given here.
experimental endpoint: Res. Act. (%)

{"columns": ["binder", "experimental endpoint", "test value"],
 "data": [
  ["RVCPRILMECKKDSDCLAECVCLEHGYCG (disulfide (positions not given here), Synthetic, folded peptide) [TICA 2]", "Res. Act. (%)", "105%"],
  ["RVCPKILMECKKDSDCLAECICLEHGYCG (disulfide (positions not given here), Synthetic congener) [TICA 4]", "Res. Act. (%)", "98%"],
  ["HEERVCPKILMECKKDSDCLAECICLEHGYCG (Synthetic congener; also called HEE-TICA4) [TICA 5]", "Res. Act. (%)", "96%"],
  ["HEERVCPRILMKCKKDSDCLAECVCLEHGYCG (Synthetic congener; also called HEE-TICA1) [TICA 3]", "Res. Act. (%)", "101%"],
  ["Corn trypsin inhibitor (other, UniProt P01088 29-138, looked up, also called CTI) SAGTSCVPGWAIPHNPLPSCRWYVTSRTCGIGPRLPWPELKRRCCRELADIPAYCRCTALSILMDGAIPPGPDAQLEGRLEDLPGCPREVQRGFAATLVTEAECNLATIS", "Res. Act. (%)", "86%"]
]}
